Let's look at some compounds and their measured Rate of dead insects.
Tested on: Common cutworm (Spodoptera litura)
Test: Insecticidal test (comparative test) against common cutworm, third instar larvae
Format: in vivo
Conditions: concentration 33 ppm, leaf dip, counted after 6 days
Enter your answer as a number in %; do not include the unit.

Recorded Rate of dead insects, per entry:
>>> recorded_result("CSCC(C)(C)NC(=O)c1c(I)cccc1C(=O)Nc1ccc(C(O)(c2ccc(Cl)cc2)C(F)(F)F)cc1C (stereo not shown) [1-084]")
100
>>> recorded_result("CSCC(C)NC(=O)c1c(I)cccc1C(=O)Nc1ccc(C(O)(c2ccc(Cl)cc2)C(F)(F)F)cc1C (stereo not shown) [1-036]")
100
>>> recorded_result("Cc1cc(C(O)(c2ccc(Cl)cc2)C(F)(F)F)ccc1NC(=O)c1cccc(I)c1C(=O)NC(C)(C)CS(C)(=O)=O (stereo not shown) [1-087]")
100

Consider now this further compound.
Exam item: Could you please provide reported Rate of dead insects for CSCC(C)(C)NC(=O)c1c(I)cccc1C(=O)Nc1ccc(C(O)c2ccc(Cl)cc2)cc1C (stereo not shown) [Comparative compound A, reference compound] ? Thanks!
Marked response: 0
